tested on: CAF#3 (primary prostate cancer-associated fibroblasts of myCAF-like type); test: drug sensitivity score (DSS2, normalised partial AUC of dose-response, 72 h CellTiter-Glo viability) (DSS (dimensionless)); higher = more sensitive (stronger growth inhibition / cytotoxicity); extreme values may be limits of the assay
Label rule met for high-side drug sensitivity score (at or above 4) and rule not met for low-side drug sensitivity score (below it).

[[record]]
compound = "Cc1ccc(-c2cc(C(F)(F)F)nn2-c2ccc(S(N)(=O)=O)cc2)cc1 [Celecoxib] (tested concentration range 1-10000 nM)"
class_label = "rule not met"

[[record]]
compound = "CC(C)n1nc(-c2ccc3oc(N)nc3c2)c2c(N)ncnc21 [Sapanisertib] (tested concentration range 0.1-1000 nM)"
class_label = "rule met"

[[record]]
compound = "CC[C@@H]1C(=O)N(C)c2cnc(Nc3ccc(C(=O)N[C@H]4CC[C@H](N5CCN(CC6CC6)CC5)CC4)cc3OC)nc2N1C(C)C [Volasertib] (tested concentration range 0.1-1000 nM)"
class_label = "rule met"

[[record]]
compound = "COc1cc2c(NC3CCN(C(C)C)CC3)nc(N3CCC(F)(F)CC3)nc2cc1OCCCN1CCCC1 [UNC0642] (tested concentration range 1-10000 nM)"
class_label = "rule not met"

[[record]]
compound = "CCN(CC)CCN(Cc1ccc(-c2ccc(C(F)(F)F)cc2)cc1)C(=O)Cn1c(SCc2ccc(F)cc2)nc(=O)c2c1CCC2 [Darapladib] (tested concentration range 0.1-1000 nM)"
class_label = "rule not met"

[[record]]
compound = "CNC(=O)c1cccc2cc(Oc3ccnc4cc(OCC5(N)CC5)c(OC)cc34)ccc12 [Lucitanib] (tested concentration range 1-10000 nM)"
class_label = "rule met"

[[record]]
compound = "C[C@H]1C[C@@H](n2c(Nc3ccc(OC(F)(F)F)cc3)nc3cc(CCC(=O)O)ccc32)CC(C)(C)C1 (tested concentration range 1-10000 nM)"
class_label = "rule not met"


###

tested on: CAF#4 (primary prostate cancer-associated fibroblasts of iCAF-like type); assay: drug sensitivity score (DSS2, normalised partial AUC of dose-response, 72 h CellTiter-Glo viability) (DSS (dimensionless)); higher = more sensitive (stronger growth inhibition / cytotoxicity); extreme values may be limits of the assay
Output Condition met for drug sensitivity score not less than 0.1; output Condition not met otherwise.

[[record]]
compound = "CC[C@]1(O)C[C@H]2CN(CCc3c([nH]c4ccccc34)[C@@](C(=O)OC)(c3cc4c(cc3OC)N(C=O)[C@H]3[C@@](O)(C(=O)OC)[C@H](OC(C)=O)[C@]5(CC)C=CCN6CC[C@]43[C@@H]65)C2)C1 [Vincristine] (tested concentration range 0.1-1000 nM)"
class_label = "Condition met"

[[record]]
compound = "N#Cc1ccnc(N2C(=O)CC[C@H]2C(=O)N(c2cncc(F)c2)[C@H](C(=O)NC2CC(F)(F)C2)c2ccccc2Cl)c1 [Ivosidenib] (tested concentration range 1-10000 nM)"
class_label = "Condition met"

[[record]]
compound = "CC(C)Cn1cnc2c(N)nc3ccccc3c21 [Imiquimod] (tested concentration range 0.2-2500 nM)"
class_label = "Condition not met"

[[record]]
compound = "O=C(Nc1cccnc1)N1CCC(Cc2cccc(Oc3ccc(C(F)(F)F)cn3)c2)CC1 [PF-3845] (tested concentration range 1-10000 nM)"
class_label = "Condition not met"

[[record]]
compound = "CCN(CC)CCNC(=O)c1c(C)[nH]c(/C=C2\\C(=O)Nc3ccc(F)cc32)c1C [Sunitinib] (tested concentration range 0.1-1000 nM)"
class_label = "Condition not met"

[[record]]
compound = "Cc1[nH]nc(C(F)(F)F)c1Cc1sc2c(c1C(=O)N1C[C@](C)(O)CO1)c(=O)n(C)c(=O)n2C(C)C [AZD3965] (tested concentration range 0.1-1000 nM)"
class_label = "Condition not met"

[[record]]
compound = "CN(C)C/C=C/C(=O)Nc1cc2c(Nc3ccc(F)c(Cl)c3)ncnc2cc1O[C@H]1CCOC1 [Afatinib] (tested concentration range 0.1-1000 nM)"
class_label = "Condition not met"

[[record]]
compound = "S=c1[nH]cnc2nc[nH]c12 [Mercaptopurine] (tested concentration range 1-10000 nM)"
class_label = "Condition met"

[[record]]
compound = "O=C1CN2Cc3c(ccc(Cl)c3Cl)N=C2N1 [Anagrelide] (tested concentration range 1-10000 nM)"
class_label = "Condition not met"

[[record]]
compound = "CCN(CC)CCCC(C)Nc1c2ccc(Cl)cc2nc2ccc(OC)cc12 (stereo unspecified) [Mepacrine] (tested concentration range 5-50000 nM)"
class_label = "Condition met"

